Numbers sourced from patent US9096646B2.

Measured activity at 1 µM of individual entries
Target: CXCR4 (Homo sapiens)
Experiment: Chemotaxis assay, effect on SDF1-a (CXCL12) induced migration of CCRF-CEM cells
Format: cell-based
Parameters: a human T-cell ALL line that endogenously expresses CXCR4; endogenous in cells; host or cells: CCRF-CEM (human T-cell ALL line)
Settings: CCRF-CEM, Table 20, i3 loop; CEM cells; conc 1.0 uM; read-out: AUC (% of vehicle)
Peptide text beside a SMILES is read from it. * marks the point of attachment. Palmitoyl = CCCCCCCCCCCCCCCC(=O)*
Respond numerically; units are % and should not be typed.

COMPOUND	UNIT NAME	activity at 1 µM
CCCCCCCCCCCCCCCC(=O)N[C@@H](CCCCN)C(=O)N[C@@H](CC(C)C)C(=O)N[C@@H](CO)C(=O)N[C@@H](Cc1cnc[nH]1)C(=O)N[C@@H](CO)C(=O)N[C@@H](CCCCN)C(=O)NCC(=O)N[C@@H](Cc1cnc[nH]1)C(=O)N[C@@H](CCC(N)=O)C(=O)N[C@@H](CCCCN)C(=O)N[C@@H](CCCNC(=N)N)C(=O)N[C@@H](CCCCN)C(=O)N[C@@H](C)C(=O)N[C@@H](CC(C)C)C(N)=O [Compound 93] (Palmitoyl-KLSHSKGHQKRKAL-NH2)	%	15.9

Consider now this further compound.
Item under review: CCCCCCCCCCCCCCCC(=O)N[C@@H](Cc1cnc[nH]1)C(=O)N[C@@H](CO)C(=O)N[C@@H](CCCCN)C(=O)NCC(=O)N[C@@H](Cc1cnc[nH]1)C(=O)N[C@@H](CCC(N)=O)C(=O)N[C@@H](CCCCN)C(=O)N[C@@H](CCCNC(=N)N)C(=O)N[C@@H](CCCCN)C(=O)N[C@@H](C)C(=O)N[C@@H](CC(C)C)C(=O)N[C@@H](CCCCN)C(=O)N[C@H](C(N)=O)[C@@H](C)O [Compound 97] (Palmitoyl-HSKGHQKRKALKT-NH2) . Reported activity at 1 µM?
48.9

---

Recorded activity at 1 µM values for a group of molecules are listed next.
Biological target: UniProt:P61073
Assay: Chemotaxis assay, effect on SDF1-a (CXCL12) induced migration of CCRF-CEM cells
Format: cell-based
Parameters: a human T-cell ALL line that endogenously expresses CXCR4; endogenous in cells; host or cells: CCRF-CEM (human T-cell ALL line)
Settings: CCRF-CEM, Table 20, i3 loop; CEM cells; conc 1.0 uM; read-out: AUC (% of vehicle)
Square brackets hold non-standard residues; d marks the D form. Peptide text beside a SMILES is read from it. * marks the point of attachment. ξ: configuration not given here. Biotin = O=C1N[C@H]2[C@H](CS[C@H]2CCCCC(=O)*)N1; ξGly(nC16H33) = CCCCCCCCCCCCCCCCC(N)C(=O)O; Palmitoyl = CCCCCCCCCCCCCCCC(=O)*
Record the value in %, omitting the unit from your answer.

MOLECULE	activity at 1 µM [%]
CCCCCCCCCCCCCCCC(=O)N[C@@H](Cc1cnc[nH]1)C(=O)N[C@@H](CO)C(=O)N[C@@H](CCCCN)C(=O)NCC(=O)N[C@@H](Cc1cnc[nH]1)C(=O)N[C@@H](CCC(N)=O)C(=O)N[C@@H](CCCCN)C(=O)N[C@@H](CCCNC(=N)N)C(=O)N[C@@H](CCCCN)C(=O)N[C@@H](C)C(=O)N[C@@H](CC(C)C)C(=O)N[C@@H](CCCCN)C(=O)N[C@H](C(=O)N[C@H](C(=O)N[C@H](C(=O)N[C@H](C(N)=O)[C@@H](C)CC)C(C)C)[C@@H](C)O)[C@@H](C)O [Compound 100] (Palmitoyl-HSKGHQKRKALKTTVI-NH2)	49.3
CCCCCCCCCCCCCCCCC(NC(=O)CCCC[C@@H]1SC[C@@H]2NC(=O)N[C@@H]21)C(=O)N[C@@H](Cc1cnc[nH]1)C(=O)N[C@@H](CO)C(=O)N[C@@H](CCCCN)C(=O)NCC(=O)N[C@@H](Cc1cnc[nH]1)C(=O)N[C@@H](CCC(N)=O)C(=O)N[C@@H](CCCCN)C(=O)N[C@@H](CCCNC(=N)N)C(=O)N[C@@H](CCCCN)C(=O)N[C@@H](C)C(=O)N[C@@H](CC(C)C)C(=O)N[C@@H](CCCCN)C(N)=O (stereo partly drawn) [Compound 87] (Biotin-[ξGly(nC16H33)]HSKGHQKRKALK-NH2)	52.6

Attention now turns to another entry.
Which activity at 1 µM value belongs to CCCCCCCCCCCCCCCC(=O)N[C@@H](CC(C)C)C(=O)N[C@@H](CO)C(=O)N[C@@H](Cc1cnc[nH]1)C(=O)N[C@@H](CO)C(=O)N[C@@H](CCCCN)C(=O)NCC(=O)N[C@@H](Cc1cnc[nH]1)C(=O)N[C@@H](CCC(N)=O)C(=O)N[C@@H](CCCCN)C(=O)N[C@@H](CCCNC(=N)N)C(=O)N[C@@H](CCCCN)C(=O)N[C@@H](C)C(=O)N[C@@H](CC(C)C)C(=O)N[C@@H](CCCCN)C(N)=O [Compound 95] (Palmitoyl-LSHSKGHQKRKALK-NH2) ?
77.5

---

Molecular target: UniProtKB P61073
Assay: Chemotaxis assay using SUP B-15 cells
Type: cell-based
Design: A similar procedure was followed for chemotaxis using SUP B-15 cells; endogenous in cells; host or cells: SUP B-15 cells
Settings: SUP-B15; Table 18, i1 loop; SUP B-15 cells; drug conc 1.0 uM; read-out: AUC (% of)
Peptide text beside a SMILES is read from it. * marks the point of attachment. Palmitoyl = CCCCCCCCCCCCCCCC(=O)*
MEASUREMENT KIND: activity at 1 µM (%)
Reply with just the number (in %).

COMPOUND	SYSTEM TESTED	NUMERIC RESULT
CCCCCCCCCCCCCCCC(=O)N[C@@H](CCCCN)C(=O)N[C@@H](CCCCN)C(=O)N[C@@H](CC(C)C)C(=O)N[C@@H](CCCNC(=N)N)C(=O)N[C@@H](CO)C(=O)N[C@@H](CCSC)C(=O)N[C@H](C(=O)N[C@@H](CC(=O)O)C(=O)N[C@@H](CCCCN)C(=O)N[C@@H](Cc1ccc(O)cc1)C(=O)N[C@@H](CCCNC(=N)N)C(=O)N[C@@H](CC(C)C)C(=O)N[C@@H](Cc1cnc[nH]1)C(=O)N[C@@H](CC(C)C)C(=O)N[C@@H](CO)C(=O)N[C@H](C(N)=O)C(C)C)[C@@H](C)O [Compound 41] (Palmitoyl-KKLRSMTDKYRLHLSV-NH2)	UniProtKB P61073	51.7

Consider now this further compound.
// activity at 1 µM lookup, key: CCCCCCCCCCCCCCCC(=O)N[C@@H](CCCCN)C(=O)N[C@@H](CCCCN)C(=O)N[C@@H](CC(C)C)C(=O)N[C@@H](CCCNC(=N)N)C(=O)N[C@@H](CO)C(=O)N[C@@H](CCSC)C(=O)N[C@H](C(=O)N[C@@H](CC(=O)O)C(=O)N[C@@H](CCCCN)C(=O)N[C@@H](Cc1ccc(O)cc1)C(=O)N[C@@H](CCCNC(=N)N)C(=O)N[C@@H](CC(C)C)C(=O)N[C@@H](Cc1cnc[nH]1)C(N)=O)[C@@H](C)O [Compound 43] (Palmitoyl-KKLRSMTDKYRLH-NH2)
70.8

---

Biological target: CXCR4 (Homo sapiens, UniProt P61073)
Sequence (P61073 whole entry): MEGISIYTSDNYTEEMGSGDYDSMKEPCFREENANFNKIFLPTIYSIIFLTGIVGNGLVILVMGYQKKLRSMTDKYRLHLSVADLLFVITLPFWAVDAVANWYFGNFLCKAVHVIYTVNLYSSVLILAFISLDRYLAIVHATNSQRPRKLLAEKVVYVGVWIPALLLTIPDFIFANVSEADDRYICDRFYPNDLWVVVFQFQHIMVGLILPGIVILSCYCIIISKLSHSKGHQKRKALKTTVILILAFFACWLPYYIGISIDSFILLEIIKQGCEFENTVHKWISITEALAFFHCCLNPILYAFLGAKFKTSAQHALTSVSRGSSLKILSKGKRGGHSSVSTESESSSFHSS
Experiment: Chemotaxis assay, effect on SDF1-a (CXCL12) induced migration of CCRF-CEM cells
Type: cell-based
Set-up: a human T-cell ALL line that endogenously expresses CXCR4; endogenous in cells; host or cells: CCRF-CEM (human T-cell ALL line)
Details: CCRF-CEM, Table 20, i3 loop; CEM cells; conc 1.0 uM; read-out: Max (% of vehicle)
Peptide text beside a SMILES is read from it. * marks the point of attachment. Palmitoyl = CCCCCCCCCCCCCCCC(=O)*
Measured activity at 1 µM accompanies every entry in the list below.
Your answer is read as %, so omit the unit and give the number.

COMPOUND	activity at 1 µM, %
CCCCCCCCCCCCCCCC(=O)N[C@@H](CC(C)C)C(=O)N[C@@H](CO)C(=O)N[C@@H](Cc1cnc[nH]1)C(=O)N[C@@H](CO)C(=O)N[C@@H](CCCCN)C(=O)NCC(=O)N[C@@H](Cc1cnc[nH]1)C(=O)N[C@@H](CCC(N)=O)C(=O)N[C@@H](CCCCN)C(=O)N[C@@H](CCCNC(=N)N)C(=O)N[C@@H](CCCCN)C(=O)N[C@@H](C)C(=O)N[C@@H](CC(C)C)C(=O)N[C@@H](CCCCN)C(N)=O [Compound 95] (Palmitoyl-LSHSKGHQKRKALK-NH2)	92.1

Next item in the queue.
Any idea what activity at 1 µM was measured for CCCCCCCCCCCCCCCC(=O)N[C@@H](Cc1cnc[nH]1)C(=O)N[C@@H](CO)C(=O)N[C@@H](CCCCN)C(=O)NCC(=O)N[C@@H](Cc1cnc[nH]1)C(=O)N[C@@H](CCC(N)=O)C(=O)N[C@@H](CCCCN)C(=O)N[C@@H](CCCNC(=N)N)C(=O)N[C@@H](CCCCN)C(=O)N[C@@H](C)C(=O)N[C@@H](CC(C)C)C(=O)N[C@@H](CCCCN)C(=O)N[C@H](C(=O)N[C@H](C(=O)N[C@H](C(N)=O)C(C)C)[C@@H](C)O)[C@@H](C)O [Compound 99] (Palmitoyl-HSKGHQKRKALKTTV-NH2) ?
64.5
